src = patent US20040248913A1

molecular target: RXRα:PPARγ heterodimer (Homo sapiens, UniProt P19793); construct: expressed in transfected cells; host or cells: CV-1 cells; experiment: RXR:PPARγ heterodimer cotransfection assay in CV-1 cells; assay type: cell-based; conditions: maximal response relative to response of the thiazolidinedione BRL49653
measuredEndpoint: Agonist Efficacy (%)

CCOc1c(\C(C)=C/C=C/C(C)=C/C(=O)O)cc(C(C)C)nc1C(C)C [Example 3]; 42
C/C(=C/C=C/C(C)=C/C(=O)O)c1cc(C(C)C)nc(C(C)C)c1OCC(F)F [Example 4]; 53
CCCCOc1c(\C(C)=C/C=C/C(C)=C/C(=O)O)cc(C(C)C)nc1C(C)C [Example 1]; 11

P = CCCOc1c(\C(C)=C/C=C/C(C)=C/C(=O)O)cc(C(C)C)nc1C(C)C [Example 2]
Q = C/C(=C/C=C/C(C)=C/C(=O)O)c1cc(C(C)C)nc(C(C)C)c1OCC(F)(F)F [Example 5]
IN: // pick larger Agonist Efficacy (%) from pair: P vs Q Reply briefly: the label of your chosen item.
OUT: Q
(Q: 55%, P: 32%)

====

system: RXRα:RAR heterodimer; test: RXR:RAR heterodimer cotransfection assay in CV-1 cells; assay type: cell-based, human; details: maximal response in presence of 3 nM TTNPB relative to response to TTNPB alone
measuredEndpoint: Synergy Efficacy (%)
Write it as a number; the unit % goes unstated.

CCCOc1c(\C(C)=C/C=C/C(C)=C/C(=O)O)cc(C(C)C)nc1C(C)C; 6

IN: Please give measured Synergy Efficacy (%) of the following entry: C/C(=C/C=C/C(C)=C/C(=O)O)c1cc(C(C)C)nc(C(C)C)c1OCC(F)F
OUT: 37

IN: Identify measured Synergy Efficacy (%) corresponding to C/C(=C/C=C/C(C)=C/C(=O)O)c1cc(C(C)C)nc(C(C)C)c1OCC(F)(F)F
OUT: 18

IN: Please list Synergy Efficacy (%) recorded for the molecule CCCCOc1c(\C(C)=C/C=C/C(C)=C/C(=O)O)cc(C(C)C)nc1C(C)C
OUT: 7

IN: Item CCOc1c(\C(C)=C/C=C/C(C)=C/C(=O)O)cc(C(C)C)nc1C(C)C : provide Synergy Efficacy (%)
OUT: 73

====

Target: RXRα:PPARγ heterodimer (Homo sapiens, UniProt P19793)
Construct: expressed in transfected cells; host or cells: CV-1 cells
Sequence (P19793 1-462): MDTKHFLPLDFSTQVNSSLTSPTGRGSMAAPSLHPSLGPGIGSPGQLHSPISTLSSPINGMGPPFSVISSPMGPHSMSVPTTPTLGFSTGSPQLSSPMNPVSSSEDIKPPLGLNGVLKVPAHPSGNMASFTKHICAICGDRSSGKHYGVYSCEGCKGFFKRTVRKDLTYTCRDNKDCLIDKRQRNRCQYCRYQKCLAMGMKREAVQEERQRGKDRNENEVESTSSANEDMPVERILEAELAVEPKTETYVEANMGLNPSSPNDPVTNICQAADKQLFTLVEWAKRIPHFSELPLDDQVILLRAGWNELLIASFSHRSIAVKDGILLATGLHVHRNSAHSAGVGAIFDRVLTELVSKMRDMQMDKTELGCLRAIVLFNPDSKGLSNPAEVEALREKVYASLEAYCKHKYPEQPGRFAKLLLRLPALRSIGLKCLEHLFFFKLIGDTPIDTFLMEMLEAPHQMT
Sequence (P37231 1-505 partner): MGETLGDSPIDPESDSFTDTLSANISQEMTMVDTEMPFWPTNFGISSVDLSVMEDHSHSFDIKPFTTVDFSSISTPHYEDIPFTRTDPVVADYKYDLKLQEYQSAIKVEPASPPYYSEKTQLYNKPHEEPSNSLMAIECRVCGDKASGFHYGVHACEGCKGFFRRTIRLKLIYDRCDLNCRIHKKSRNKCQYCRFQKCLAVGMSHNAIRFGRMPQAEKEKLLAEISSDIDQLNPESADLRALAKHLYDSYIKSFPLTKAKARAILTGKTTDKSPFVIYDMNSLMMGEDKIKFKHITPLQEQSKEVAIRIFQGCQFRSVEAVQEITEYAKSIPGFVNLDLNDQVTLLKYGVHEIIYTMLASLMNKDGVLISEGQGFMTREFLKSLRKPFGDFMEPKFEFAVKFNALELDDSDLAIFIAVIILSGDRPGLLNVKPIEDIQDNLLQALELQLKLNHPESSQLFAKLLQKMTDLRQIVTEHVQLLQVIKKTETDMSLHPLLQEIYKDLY
Test: RXR:PPARγ heterodimer cotransfection assay in CV-1 cells
Format: cell-based
Conditions: maximal response in presence of 100 nM BRL49653 relative to response of BRL49653 alone
measuredEndpoint: Synergy Efficacy (%)

Answered cases to consult:
C/C(=C/C=C/C(C)=C/C(=O)O)c1cc(C(C)C)nc(C(C)C)c1OCC(F)(F)F; 107
CCOc1c(\C(C)=C/C=C/C(C)=C/C(=O)O)cc(C(C)C)nc1C(C)C; 182

P = CCCCOc1c(\C(C)=C/C=C/C(C)=C/C(=O)O)cc(C(C)C)nc1C(C)C
Q = C/C(=C/C=C/C(C)=C/C(=O)O)c1cc(C(C)C)nc(C(C)C)c1OCC(F)F
R = CCCOc1c(\C(C)=C/C=C/C(C)=C/C(=O)O)cc(C(C)C)nc1C(C)C
IN: Reorder the items by Synergy Efficacy (%), least to greatest. The labels, placed in the requested order, form the answer.
OUT: P, R, Q

====

Target: RXRα homodimer (Homo sapiens, UniProt P19793)
Sequence (P19793 1-462): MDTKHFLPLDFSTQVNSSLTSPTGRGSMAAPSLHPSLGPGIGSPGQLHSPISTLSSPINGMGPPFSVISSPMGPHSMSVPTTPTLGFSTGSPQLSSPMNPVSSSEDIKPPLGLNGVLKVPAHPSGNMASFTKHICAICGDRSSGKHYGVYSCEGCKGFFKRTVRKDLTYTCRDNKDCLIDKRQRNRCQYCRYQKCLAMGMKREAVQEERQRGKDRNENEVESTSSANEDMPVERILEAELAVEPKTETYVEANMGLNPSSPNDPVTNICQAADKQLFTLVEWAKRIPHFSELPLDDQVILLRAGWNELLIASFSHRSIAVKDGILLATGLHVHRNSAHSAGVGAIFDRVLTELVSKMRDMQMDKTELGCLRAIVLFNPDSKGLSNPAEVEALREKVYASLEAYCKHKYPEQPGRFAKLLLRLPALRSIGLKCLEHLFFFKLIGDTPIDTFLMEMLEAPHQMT
Experiment: RXR homodimer co-transfection assay in CV-1 cells (CRBPIITKLUC reporter)
Assay type: cell-based
Details: RXRα homodimer; % of maximal inhibition in presence of fixed concentration (3.2×10^−8 M) of known RXR agonist
measuredEndpoint: Antagonist Efficacy (%)

C/C(=C/C=C/C(C)=C/C(=O)O)c1cc(C(C)C)nc(C(C)C)c1OCC(F)(F)F [Example 5]; 85
CCCCOc1c(\C(C)=C/C=C/C(C)=C/C(=O)O)cc(C(C)C)nc1C(C)C [Example 1]; 93
CCCOc1c(\C(C)=C/C=C/C(C)=C/C(=O)O)cc(C(C)C)nc1C(C)C [Example 2]; 88

I = C/C(=C/C=C/C(C)=C/C(=O)O)c1cc(C(C)C)nc(C(C)C)c1OCC(F)F [Example 4]
II = CCOc1c(\C(C)=C/C=C/C(C)=C/C(=O)O)cc(C(C)C)nc1C(C)C [Example 3]
IN: Identify the item whose Antagonist Efficacy (%) is the smaller number: I or II State your choice using its label.
OUT: II

====

system: RXRα:RAR heterodimer; experiment: RXR:RAR heterodimer cotransfection assay in CV-1 cells; assay type: cell-based, human; conditions: maximal response relative to response of ATRA
The following compounds are shown together with reported Agonist Efficacy (%) values.
Field: numeric (%). Do not append units.

// solved cases for Agonist Efficacy (%) follow
CCCCOc1c(\C(C)=C/C=C/C(C)=C/C(=O)O)cc(C(C)C)nc1C(C)C; 1
CCOc1c(\C(C)=C/C=C/C(C)=C/C(=O)O)cc(C(C)C)nc1C(C)C; 6
C/C(=C/C=C/C(C)=C/C(=O)O)c1cc(C(C)C)nc(C(C)C)c1OCC(F)F; 9
C/C(=C/C=C/C(C)=C/C(=O)O)c1cc(C(C)C)nc(C(C)C)c1OCC(F)(F)F; 3

IN: Quote Agonist Efficacy (%) with test system RXRα:RAR heterodimer for CCCOc1c(\C(C)=C/C=C/C(C)=C/C(=O)O)cc(C(C)C)nc1C(C)C
OUT: 2

====

target: RXRα homodimer (Homo sapiens, UniProt P19793); experiment: RXR homodimer co-transfection assay in CV-1 cells (CRBPIITKLUC reporter); format: cell-based; settings: RXRα homodimer cotransfection, CV-1 cells; mean of n > 2
measuredEndpoint: Agonist Efficacy (%)

C/C(=C/C=C/C(C)=C/C(=O)O)c1cc(C(C)C)nc(C(C)C)c1OCC(F)(F)F; 3

a = CCCOc1c(\C(C)=C/C=C/C(C)=C/C(=O)O)cc(C(C)C)nc1C(C)C
b = C/C(=C/C=C/C(C)=C/C(=O)O)c1cc(C(C)C)nc(C(C)C)c1OCC(F)F
c = CCCCOc1c(\C(C)=C/C=C/C(C)=C/C(=O)O)cc(C(C)C)nc1C(C)C
d = CCOc1c(\C(C)=C/C=C/C(C)=C/C(=O)O)cc(C(C)C)nc1C(C)C
IN: Rank descending by Agonist Efficacy (%). Please list the labels according to the requested order.
OUT: d, b, a, c
